Ref: PubChem BioAssay AID2060486

tested on: IGROV1 complex spheroids (HUVEC, MSC), viability % test/control; experiment: Anticancer human tumor IGROV1 cell line growth inhibition [GQUAD]; conditions: second compound 0.0316 µM; first compound 0.316 µM; stronger effect = lower value;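 also: spheroids exposed to compounds for 7 days before readout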
Param label: returns TRUE when viability, T/C < 40%, returns FALSE otherwise, including exact equality.

{"molecule": "C=CCn1c(=O)c2cnc(Nc3ccc(N4CCN(C)CC4)cc3)nc2n1-c1cccc(C(C)(C)O)n1 + Cc1[nH]c2ccc(F)cc2c1-c1nc2c3cccnc3c3ncccc3c2[nH]1", "class_label": "TRUE"}
{"molecule": "O=c1[nH]cc(F)c(=O)[nH]1 + CN(C)c1ccc(Nc2c3ccc(NC(=O)CCN4CCCC4)cc3nc3cc(NC(=O)CCN4CCCC4)ccc23)cc1", "class_label": "FALSE"}
{"molecule": "COc1cc(C2c3cc4c(cc3C(OC3OC5COC(C)OC5C(O)C3O)C3COC(=O)C23)OCO4)cc(OC)c1O (stereo not given) + Cc1[nH]c2ccc(F)cc2c1-c1nc2c3cccnc3c3ncccc3c2[nH]1", "class_label": "TRUE"}
{"molecule": "Cn1ncnc1[C@H]1c2n[nH]c(=O)c3cc(F)cc(c23)N[C@@H]1c1ccc(F)cc1 + Cc1cnc(CNC(=O)c2c(=O)c3ccc(N4CCCN(C)CC4)nc3n3c2sc2ccccc23)cn1", "class_label": "TRUE"}
